Field: log2 fold change of degron read counts. Provide a value for each of the sequences that follow.
Target: T1, CRBN, Q96SW2;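 note: pooled lentiviral library of zinc finger degron-EGFP fusions in mCherry-positive Jurkat cells, FACS-sorted after compound exposure, with degron abundance counted by next-generation sequencing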
T1 chain: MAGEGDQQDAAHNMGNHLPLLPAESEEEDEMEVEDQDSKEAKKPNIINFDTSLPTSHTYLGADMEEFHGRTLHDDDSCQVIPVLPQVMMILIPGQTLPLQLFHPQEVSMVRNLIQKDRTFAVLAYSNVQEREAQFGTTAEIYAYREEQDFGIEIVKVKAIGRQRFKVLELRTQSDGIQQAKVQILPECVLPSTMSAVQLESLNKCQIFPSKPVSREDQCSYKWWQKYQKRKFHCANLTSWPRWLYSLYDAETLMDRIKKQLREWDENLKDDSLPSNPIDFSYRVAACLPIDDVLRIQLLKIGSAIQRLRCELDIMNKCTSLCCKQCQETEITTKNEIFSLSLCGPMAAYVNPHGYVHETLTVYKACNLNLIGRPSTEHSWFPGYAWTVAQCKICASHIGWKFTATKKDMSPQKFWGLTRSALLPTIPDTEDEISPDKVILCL
Assay: log2 fold change of degron read counts, EGFP-low vs EGFP+ sorted cells (limma voom), compound-induced degradation; higher = more compound-induced degradation of the degron-EGFP fusion; degrons are variants of IKZF1/3 zinc finger 2; compound dose not given here
Conditions: Jurkat; 18 h; compound: compound 33 (diphenyl IMiD analogue)
In all, about 8,300 sequences were measured (“log2 fold change of degron read counts, EGFP-low vs EGFP+ sorted cells (limma voom), compound-induced degradation”: median about -1.1, highest 2% from about 3.2 on). The list comes from a sample in which the highest values are over-represented; it also holds close analogues and randomly drawn sequences.
One number for each entry.

Example cases with answers are listed next.
FECNVCGAHFTQKGNLLRHIKL [46F_47E_49N_50V_52G_53A_54H_55F_67L_, Q9UKT9]; -0.566
FFCDICGAGFTQKGNLLRHIKL [46F_47F_49D_50I_52G_53A_54G_55F_67L_, Q9UKT9]; 0.35
FDCNQCGHNFTQKGNLLRHIKL [46F_47D_49N_50Q_52G_53H_54N_55F_67L_, Q9UKT9]; -2.32

Lab note: next sequence to report on.
Input line: Report log2 fold change of degron read counts for FECEQCGAIFTQKGNLLRHIKL [46F_47E_49E_50Q_52G_53A_54I_55F_67L_, Q9UKT9] please.
Output line: -1.26
